Taken from patent US20230235080A1.

- system-under-test: T1, human Trop-2-ECD-6His fusion protein (human, UniProt P09758 27-274)
- T1 construct: Expressed in a human 293 cell line; also called huTrop-2; human Trop-2 antigen
- T1 sequence: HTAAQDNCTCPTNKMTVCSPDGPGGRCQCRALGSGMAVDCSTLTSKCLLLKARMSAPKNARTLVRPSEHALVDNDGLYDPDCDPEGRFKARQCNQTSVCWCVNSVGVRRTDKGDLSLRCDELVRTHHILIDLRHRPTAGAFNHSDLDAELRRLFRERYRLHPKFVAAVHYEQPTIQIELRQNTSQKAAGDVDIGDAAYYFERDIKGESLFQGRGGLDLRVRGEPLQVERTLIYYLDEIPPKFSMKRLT
- assay-remarks: antigen binding ELISA on immobilized human Trop-2-ECD-6His
Could you please report measured EC50 for the items listed next?
Numbers only, in nM.

humanized #125-1-5 Hu3/Lu6 (antibody, V domains shown, Humanized antibody) VH: QVQLVQSGAEVKKPGASVKVSCKASGYTFTTYVIHWVRQAPGQRLEWMGYINPNNDGTKYNEKFKGKATLTSDKSSTTAYMEVRGLTSEDSAVYYCARPHFETHAMDYWGQGTLVTVSS VL: DIQMTQSPSSLSASVGDRVTITCKASEDIFNRLAWYQQKPGKAPKLLISGATSLETGVPSRFSGSGSGKDYTLTISSLQPEDFATYYCQQYWNTWTFGQGTKVEIK ... 0.045
benchmark antibody hRS7 (antibody, V domains shown) VH: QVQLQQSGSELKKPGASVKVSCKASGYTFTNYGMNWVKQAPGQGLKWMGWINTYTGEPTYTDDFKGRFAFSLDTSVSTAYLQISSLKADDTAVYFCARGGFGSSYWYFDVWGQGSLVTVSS VL: DIQLTQSPSSLSASVGDRVSITCKASQDVSIAVAWYQQKPGKAPKLLIYSASYRYTGVPDRFSGSGSGTDFTLTISSLQPEDFAVYYCQQHYITPLTFGAGTKVDIK ... 0.062

Look up EC50 for the entries below, preserving their order.
1. humanized #125-1-5 Hu1/Lu6 (antibody, V domains shown, Humanized antibody) VH: QVQLVQSGAEVKKPGASVKVSCKASGYTFTTYVIHWVRQAPGQRLEWMGYINPNNDGTKYNEKFKGRVTITRDTSASTAYMELSSLRSEDTAVYYCARPHFETHAMDYWGQGTLVTVSS VL: DIQMTQSPSSLSASVGDRVTITCKASEDIFNRLAWYQQKPGKAPKLLISGATSLETGVPSRFSGSGSGKDYTLTISSLQPEDFATYYCQQYWNTWTFGQGTKVEIK
2. humanized IgG #125-1-5 Hu3/Lu5 (antibody, V domains shown, also called IgG Hu3/Lu5) VH: QVQLVQSGAEVKKPGASVKVSCKASGYTFTTYVIHWVRQAPGQRLEWMGYINPNNDGTKYNEKFKGKATLTSDKSSTTAYMEVRGLTSEDSAVYYCARPHFETHAMDYWGQGTLVTVSS VL: DIQMTQSPSSLSASVGDRVTITCKASEDIFNRLAWYQQKPGKAPKLLLYGATSLETGVPSRFSGSGSGTDYTLTISSLQPEDFATYYCQQYWNTWTFGQGTKVEIKR
3. humanized #125-1-5 Hu4/Lu5 (antibody, V domains shown, Humanized antibody) VH: QVQLVQSGAEVKKPGASVKMSCKASGYTFTTYVIHWVRQAPGQRLEWIGYINPNNDGTKYNEKFKGRATLTSDKSASTAYMELSSLRSEDTAVYYCARPHFETHAMDYWGQGTLVTVSS VL: DIQMTQSPSSLSASVGDRVTITCKASEDIFNRLAWYQQKPGKAPKLLLYGATSLETGVPSRFSGSGSGTDYTLTISSLQPEDFATYYCQQYWNTWTFGQGTKVEIK

A)
1: 0.003; 2: 0.012; 3: 0.019
